Reported pKd values are given for each entry in this list.
Target: T1, PUF4 RNA-binding domain (Saccharomyces cerevisiae, UniProt P25339 537-888)
T1 sequence: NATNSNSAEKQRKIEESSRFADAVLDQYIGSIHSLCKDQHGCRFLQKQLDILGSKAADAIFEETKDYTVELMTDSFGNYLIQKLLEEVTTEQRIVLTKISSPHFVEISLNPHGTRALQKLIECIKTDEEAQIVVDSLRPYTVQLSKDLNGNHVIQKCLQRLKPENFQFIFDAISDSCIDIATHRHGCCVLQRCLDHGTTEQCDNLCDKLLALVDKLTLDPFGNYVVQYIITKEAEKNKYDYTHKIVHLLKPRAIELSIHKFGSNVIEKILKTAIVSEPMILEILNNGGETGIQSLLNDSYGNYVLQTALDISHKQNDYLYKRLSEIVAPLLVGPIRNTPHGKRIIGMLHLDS
Assay: Mg; RNA-MaP; 20 mM Na-HEPES pH 7.4, 30 mM KOAc, 0.75 mM MgCl2, 0.1% Tween-20, 5% glycerol, 0.1 mg/mL BSA, 2 mM DTT; 25 C; 0.0125-409.6 nM protein
Conditions: tags: N-His6-TEV cleaved; C-SNAP kept, Cy3B-labelled; label: tethered on chip by stalled RNA polymerase
// scale note: pKd = -log10(conc_M); give the bare number

Consider the worked cases shown below.
Id_ii_S2_P5E.3_K5.2_C5.2_[C-2A]_[T-1A]_H5.2_A5.1_F5.1_T5.2_[T11C] (ssRNA) RNA: UUUGAUUAAUAUGAUAUCGUUCUUUCUAAUAUAUUAUUACAUUCUUUCUCGAUAUCAUAUUAAUCUUU = 6.17
Ic_S4_P4E.1_K4.1_C4.1_H4.1_A4.1_[T5C]_[T7G]_F4.1_T4.1 (ssRNA) RNA: UUUGACAACUGAUCGUUCUUUCUUGUACAGUAUUCUUUCUCGAUCAGUUGUCUUU = 8.84
UCUCUUACUGUAUAUACGUCUCUU (ssRNA) [Id_ii_S1_P3E.2_K3.1_C3.2_[C-2A]_[T-1C]_H3.1_A3.1_F3.1_T3.2_[T9C]_[A10G]] = 7.34
Ic_S4_P4E.1_K4.1_C4.1_H4.1_A4.1_[T5C]_F4.1_[T8C]_[A9T]_T4.1 (ssRNA) RNA: UUUGACAACUGAUCGUUCUUUCUUGUACAUCUUUCUUUCUCGAUCAGUUGUCUUU = 7.96

[in] Give a short answer stating reported pKd for UCUCUUAAUAUAUAUUAUCUCUCUU (ssRNA) [Id_ii_S1_P4E.3_K4.2_C4.2_[C-2A]_[T-1A]_H4.2_A4.1_F4.1_T4.2_[G10T]_[T11C]] .
[out] 7.10

[in] Respond only with pKd recorded for Id_ii_S2_P4E.3_K4.2_C4.2_[T-1A]_H4.2_A4.1_F4.1_T4.2_[G10C]_[T11G] (ssRNA) RNA: UUUGAUUAAUAUGAUAUCGUUCUUUCUCAUAUAUAUUACGUUCUUUCUCGAUAUCAUAUUAAUCUUU
[out] 7.48

src = paper PMC9352680
